Target: T1, UNK ZnF1-6 (called full-length) (human, UniProt Q9C0B0 30-357)
T1 sequence: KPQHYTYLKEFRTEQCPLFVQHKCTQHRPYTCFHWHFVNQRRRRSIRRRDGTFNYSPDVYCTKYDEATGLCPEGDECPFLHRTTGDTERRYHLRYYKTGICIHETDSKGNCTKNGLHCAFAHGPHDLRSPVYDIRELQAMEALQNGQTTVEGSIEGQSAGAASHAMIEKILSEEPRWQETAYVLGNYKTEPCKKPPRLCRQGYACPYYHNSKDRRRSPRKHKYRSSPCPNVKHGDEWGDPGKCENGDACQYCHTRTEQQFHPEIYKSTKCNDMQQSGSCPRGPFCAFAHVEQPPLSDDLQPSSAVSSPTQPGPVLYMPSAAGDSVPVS
Test: nsRBNS (natural sequence RNA bind-n-seq); RBNS binding buffer (assumed for nsRBNS): 25 mM Tris pH 7.5, 150 mM KCl, 3 mM MgCl2, 0.01% Triton X-100, 500 ug/ml BSA, 20 U/ml SUPERase-In, 4 C; UNK is unkempt and MSI1 is Musashi-1; names of the RNAs are library labels; protein concentration not given here; high values mean tight binding
Whole data set: some 5,800 sequences, median “enrichment r” near 0.68, cut for the highest 2% near 11. For the sample, the highest values were picked, then their nearest neighbours and some sequences at random.
# binding signal per record follows

binder	binding signal (enrichment R)
chr1:68475836:68475940:-|3pUTR|ENSG00000024526|unk|FALSE|unique (ssRNA) RNA: GGGAGUUCUACAGUCCGACGAUCAUGCCCAGGGCCUAACUUACACUAAUUAAAUCUGAAUUUUGGGGAUGUUGUAUAGGGAUUAGUAUUUUUUUUAAUCUAGGUGAUUCCAAUAUUCAGCCAACUGUGAGAAUCAAUGGCCUACAACAGAGGAUUGAGCAUCA	11.6
chr18:2804133:2804242:+|3pUTR|ENSG00000101596|unk|FALSE|unique (ssRNA) RNA: GGGAGUUCUACAGUCCGACGAUCGGUUAAAGAGAAAUGACUUUUUAGGAACUAGACUUGAACGUAUAAUUAAUAUGUGGAACUAGUUUGCUUUUAUAAUUCAUUGUAUCAAGAAGGAGUCAUGUUUUAAAUCCAAGGCAUUGACAACAGAGGAUUGAGCAUCA	0.789

Numbers sourced from paper PMC12136788.
